Molecular target: human CB1 receptor (Homo sapiens)
Construct: expressed in transfected cells; host or cells: human embryonic kidney (HEK) cells, Semliki Forest Virus system, membrane preparation
Experiment: CB1 receptor affinity ([3H]-CP-55,940 displacement)
Assay type: binding
Settings: 10 μM, HEK cell membranes, radioligand [3H]-CP-55,940; read-out: CB1 receptor affinity [% inhibition @ 10 μM]
measuredQuantity: inhibition at 10 µM (%)

[[record]]
compoundsmiles = "CO/N=C(/CNC(=O)c1ncc(OCC2CC2)c(-c2ccc(Cl)cc2)n1)C1CC1"
assayvalue = 28.8

[[record]]
compoundsmiles = "O=C(NC/C(=N/O)C1CC1)c1cnc(OCC(F)(F)F)c(-c2ccc(Cl)c(Cl)c2)c1"
assayvalue = 30

[[record]]
compoundsmiles = "CO/N=C1\\CCCC[C@@H]1NC(=O)c1cc(-c2ccc(Cl)cc2)c(O[C@@H](C)C(F)(F)F)cn1"
assayvalue = 35.5

[[record]]
compoundsmiles = "CO/N=C(/CNC(=O)c1cc(-c2ccc(Cl)c(Cl)c2)c(OCC(F)(F)F)nn1)C1CC1"
assayvalue = -2

[[record]]
compoundsmiles = "CO/N=C1\\CCCC[C@@H]1NC(=O)c1cc(-c2ccc(Cl)cc2)c(OCC2CC2)nn1"
assayvalue = 26.9

[[record]]
compoundsmiles = "CO/N=C1\\CCCC[C@@H]1NC(=O)c1cnc(O[C@@H](C)C(F)(F)F)c(-c2ccc(Cl)cc2)c1"
assayvalue = 24.1

[[record]]
compoundsmiles = "CO/N=C1\\CCCC[C@@H]1NC(=O)c1cnc(OCC(F)(F)F)c(-c2ccc(Cl)cc2)c1"
assayvalue = 30.8

[[record]]
compoundsmiles = "CO/N=C(\\CNC(=O)c1cnc(OCC(F)(F)F)c(-c2ccc(Cl)cc2)c1)C1CC1"
assayvalue = 48.6

[[record]]
compoundsmiles = "CO/N=C(/CNC(=O)c1cc(-c2ccc(Cl)cc2)c(O[C@@H](C)C(F)(F)F)nn1)C1CC1"
assayvalue = 39

[[record]]
compoundsmiles = "CO/N=C(/CNC(=O)c1ccc(OCC(F)(F)F)c(-c2ccc(Cl)cc2)n1)C(F)(F)F"
assayvalue = 41

[[record]]
compoundsmiles = "CC(C)O/N=C1\\CCCC[C@@H]1NC(=O)c1cnc(OCC2CC2)c(-c2ccc(Cl)cc2)c1"
assayvalue = 45.7

[[record]]
compoundsmiles = "CO/N=C(/CNC(=O)c1cc(-c2ccc(Cl)cc2)c(OCC(F)(F)F)cn1)C1CC1"
assayvalue = 15

[[record]]
compoundsmiles = "O=C(N[C@H]1CCCC/C1=N\\OCC(F)(F)F)c1cnc(OCC2CC2)c(-c2ccc(Cl)cc2)c1"
assayvalue = 48.5

[[record]]
compoundsmiles = "CO/N=C1\\CCCC[C@@H]1NC(=O)c1cc(-c2ccc(Cl)cc2)c(OCC(F)(F)F)cn1"
assayvalue = 15.9

[[record]]
compoundsmiles = "CO/N=C1\\CCCC[C@@H]1NC(=O)c1ccc(OCC(F)(F)F)c(-c2ccc(Cl)cc2)n1"
assayvalue = 0.74

[[record]]
compoundsmiles = "CO/N=C1\\CCCC[C@@H]1NC(=O)c1cnc(O[C@@H](C)C(F)(F)F)c(-c2ccc(Cl)cc2)n1"
assayvalue = 21

[[record]]
compoundsmiles = "CO/N=C1\\CCCC[C@H]1NC(=O)c1cc(-c2ccc(Cl)cc2)c(OCC(F)(F)F)nn1"
assayvalue = 25.4

[[record]]
compoundsmiles = "CO/N=C1\\CCCC[C@@H]1NC(=O)c1cc(-c2ccc(Cl)c(Cl)c2)c(OCC(F)(F)F)nn1"
assayvalue = 22

[[record]]
compoundsmiles = "CO/N=C(\\CNC(=O)c1ncc(OCC2CC2)c(-c2ccc(Cl)cc2)n1)C1CC1"
assayvalue = 28

[[record]]
compoundsmiles = "CO/N=C(/CNC(=O)c1cnc(OCC(F)(F)F)c(-c2ccc(Cl)cc2)c1)C1CC1"
assayvalue = 48.2

[[record]]
compoundsmiles = "CO/N=C(/CNC(=O)c1cnc(OCC(F)(F)F)c(-c2ccc(Cl)c(Cl)c2)c1)C(F)(F)F"
assayvalue = 32

[[record]]
compoundsmiles = "CO/N=C1\\CCCC[C@@H]1NC(=O)c1cc(-c2ccc(Cl)cc2)c(OCC(F)(F)F)nn1"
assayvalue = 16.6

[[record]]
compoundsmiles = "NC(=O)CO/N=C1\\CCCC[C@@H]1NC(=O)c1cnc(OCC2CC2)c(-c2ccc(Cl)cc2)c1"
assayvalue = 33.1

[[record]]
compoundsmiles = "CO/N=C(/CNC(=O)c1cnc(OCC(F)(F)F)c(-c2ccc(Cl)c(Cl)c2)c1)C1CC1"
assayvalue = 26.8

[[record]]
compoundsmiles = "CO/N=C(/CNC(=O)c1cnc(O[C@@H](C)C(F)(F)F)c(-c2ccc(Cl)cc2)n1)C1CC1"
assayvalue = 13

[[record]]
compoundsmiles = "O=C(NC/C(=N/OCC(F)(F)F)C1CC1)c1cnc(OCC(F)(F)F)c(-c2ccc(Cl)c(Cl)c2)c1"
assayvalue = 36

[[record]]
compoundsmiles = "CO/N=C1\\CCCC[C@@H]1NC(=O)c1ncc(O[C@@H](C)C(F)(F)F)c(-c2ccc(Cl)cc2)n1"
assayvalue = 34.4

[[record]]
compoundsmiles = "COCO/N=C1\\CCCC[C@@H]1NC(=O)c1cnc(OCC2CC2)c(-c2ccc(Cl)cc2)c1"
assayvalue = 36.7


---

Target: human CB1 receptor (Homo sapiens, UniProt P21554)
Construct: expressed in transfected cells; host or cells: human embryonic kidney (HEK) cells, Semliki Forest Virus system, membrane preparation
Sequence (P21554 whole entry): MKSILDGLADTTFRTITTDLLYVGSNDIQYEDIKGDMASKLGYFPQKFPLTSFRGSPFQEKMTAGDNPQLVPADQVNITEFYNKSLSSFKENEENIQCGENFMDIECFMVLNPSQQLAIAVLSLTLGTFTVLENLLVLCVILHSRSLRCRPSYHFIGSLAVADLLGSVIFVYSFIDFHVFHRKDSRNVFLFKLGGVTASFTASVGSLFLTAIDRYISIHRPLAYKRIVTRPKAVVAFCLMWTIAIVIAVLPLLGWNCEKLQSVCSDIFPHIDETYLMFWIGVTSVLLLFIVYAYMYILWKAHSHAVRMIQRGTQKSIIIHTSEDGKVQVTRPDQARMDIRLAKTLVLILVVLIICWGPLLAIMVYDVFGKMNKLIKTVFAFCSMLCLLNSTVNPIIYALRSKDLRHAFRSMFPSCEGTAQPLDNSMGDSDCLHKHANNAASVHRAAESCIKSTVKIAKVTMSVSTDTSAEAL
Test: CB1 receptor affinity ([3H]-CP-55,940 displacement)
Type: binding
Settings: read-out: CB1 receptor affinity [% inhibition @ 10 μM]
measuredQuantity: inhibition at 10 µM (%)

[[record]]
compoundsmiles = "CO/N=C1\\CCCC[C@@H]1NC(=O)c1cnc(OCC(F)(F)F)c(-c2ccc(Cl)c(Cl)c2)c1"
assayvalue = 10.5

[[record]]
compoundsmiles = "CO/N=C1\\CCCC[C@H]1NC(=O)c1cnc(OCC(F)(F)F)c(-c2ccc(Cl)c(Cl)c2)c1"
assayvalue = 35.2

[[record]]
compoundsmiles = "CO/N=C1\\CCCC[C@@H]1NC(=O)c1cnc(OCC2CC2)c(-c2ccc(Cl)cc2)c1"
assayvalue = 34

[[record]]
compoundsmiles = "CO/N=C(/CNC(=O)c1cnc(O[C@@H](C)C(F)(F)F)c(-c2ccc(Cl)cc2)c1)C1CC1"
assayvalue = 39.3


---

inhibition at 10 µM listing for selected compounds.
Target: human CB2 receptor (Homo sapiens)
Construct: expressed in transfected cells; host or cells: human embryonic kidney (HEK) cells, Semliki Forest Virus system, membrane preparation
Sequence (P34972 whole entry): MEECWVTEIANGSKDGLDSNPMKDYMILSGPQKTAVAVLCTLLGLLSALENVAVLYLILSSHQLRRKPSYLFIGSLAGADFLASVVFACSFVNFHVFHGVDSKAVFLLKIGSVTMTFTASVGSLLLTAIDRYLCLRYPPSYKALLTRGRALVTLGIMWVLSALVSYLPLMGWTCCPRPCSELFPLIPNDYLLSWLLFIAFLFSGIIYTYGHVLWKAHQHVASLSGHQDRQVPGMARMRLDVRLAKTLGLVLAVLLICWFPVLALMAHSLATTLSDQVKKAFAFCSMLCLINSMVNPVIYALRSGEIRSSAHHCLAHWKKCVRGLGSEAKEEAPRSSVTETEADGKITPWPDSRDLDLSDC
Assay: CB2 receptor affinity ([3H]-CP-55,940 displacement)
Assay type: binding
Settings: HEK cell membranes, radioligand [3H]-CP-55,940
measuredQuantity: inhibition at 10 µM (%)

[[record]]
compoundsmiles = "CO/N=C(/CNC(=O)c1cc(-c2ccc(Cl)cc2)c(OCC(F)(F)F)cn1)C1CC1"
assayvalue = 29

[[record]]
compoundsmiles = "CO/N=C(/CNC(=O)c1cc(-c2ccc(Cl)cc2)c(O[C@@H](C)C(F)(F)F)nn1)C1CC1"
assayvalue = 29

[[record]]
compoundsmiles = "CO/N=C1\\CCCC[C@@H]1NC(=O)c1cc(-c2ccc(Cl)cc2)c(OCC(F)(F)F)nn1"
assayvalue = 13.6

[[record]]
compoundsmiles = "CO/N=C1\\CCCC[C@@H]1NC(=O)c1cnc(OCC(F)(F)F)c(-c2ccc(Cl)cc2)c1"
assayvalue = 3.53

[[record]]
compoundsmiles = "CO/N=C1\\CCCC[C@H]1NC(=O)c1cc(-c2ccc(Cl)cc2)c(OCC(F)(F)F)nn1"
assayvalue = 16.6

[[record]]
compoundsmiles = "CO/N=C1\\CCCC[C@@H]1NC(=O)c1cc(-c2ccc(Cl)cc2)c(O[C@@H](C)C(F)(F)F)cn1"
assayvalue = 33

[[record]]
compoundsmiles = "CO/N=C1\\CCCC[C@@H]1NC(=O)c1cc(-c2ccc(Cl)cc2)c(OCC(F)(F)F)cn1"
assayvalue = 37.6

[[record]]
compoundsmiles = "CO/N=C(/CNC(=O)c1cc(-c2ccc(Cl)c(Cl)c2)c(OCC(F)(F)F)nn1)C1CC1"
assayvalue = 14


---

Target: human CB2 receptor (Homo sapiens)
Construct: expressed in transfected cells; host or cells: human embryonic kidney (HEK) cells, Semliki Forest Virus system, membrane preparation
Experiment: CB2 receptor affinity ([3H]-CP-55,940 displacement)
Format: binding
Details: HEK cell membranes, radioligand [3H]-CP-55,940
param class (str): category from inhibition at 10 µM; see ranges low range: < 10%; mid range: ≥ 10% and < 20%; high range: ≥ 20%

[[record]]
molecule = "O=C(NC/C(=N/OCC(F)(F)F)C1CC1)c1cnc(OCC(F)(F)F)c(-c2ccc(Cl)c(Cl)c2)c1 [Example 22]"
assignedcategory = "low range"

[[record]]
molecule = "CO/N=C1\\CCCC[C@@H]1NC(=O)c1cc(-c2ccc(Cl)c(Cl)c2)c(OCC(F)(F)F)nn1 [Example 24]"
assignedcategory = "high range"

[[record]]
molecule = "CO/N=C1\\CCCC[C@@H]1NC(=O)c1cc(-c2ccc(Cl)cc2)c(OCC2CC2)nn1 [Example 18]"
assignedcategory = "high range"

[[record]]
molecule = "CO/N=C(/CNC(=O)c1cnc(O[C@@H](C)C(F)(F)F)c(-c2ccc(Cl)cc2)c1)C1CC1 [Example 31]"
assignedcategory = "low range"

[[record]]
molecule = "CO/N=C(/CNC(=O)c1cnc(OCC(F)(F)F)c(-c2ccc(Cl)cc2)c1)C1CC1 [Example 14]"
assignedcategory = "high range"

[[record]]
molecule = "CO/N=C(/CNC(=O)c1cnc(OCC(F)(F)F)c(-c2ccc(Cl)c(Cl)c2)c1)C1CC1 [Example 12]"
assignedcategory = "high range"

[[record]]
molecule = "O=C(NC/C(=N/O)C1CC1)c1cnc(OCC(F)(F)F)c(-c2ccc(Cl)c(Cl)c2)c1 [Example 11]"
assignedcategory = "high range"

[[record]]
molecule = "CO/N=C1\\CCCC[C@@H]1NC(=O)c1cnc(O[C@@H](C)C(F)(F)F)c(-c2ccc(Cl)cc2)c1 [Example 30]"
assignedcategory = "mid range"

[[record]]
molecule = "CO/N=C(/CNC(=O)c1ncc(OCC2CC2)c(-c2ccc(Cl)cc2)n1)C1CC1 [Example 20]"
assignedcategory = "high range"

[[record]]
molecule = "CO/N=C1\\CCCC[C@@H]1NC(=O)c1cnc(OCC2CC2)c(-c2ccc(Cl)cc2)c1 [Example 1]"
assignedcategory = "mid range"

[[record]]
molecule = "CO/N=C1\\CCCC[C@@H]1NC(=O)c1ccc(OCC(F)(F)F)c(-c2ccc(Cl)cc2)n1 [Example 10]"
assignedcategory = "mid range"

[[record]]
molecule = "CO/N=C1\\CCCC[C@@H]1NC(=O)c1cnc(OCC(F)(F)F)c(-c2ccc(Cl)c(Cl)c2)c1 [Example 7]"
assignedcategory = "low range"

[[record]]
molecule = "CO/N=C(/CNC(=O)c1cnc(OCC(F)(F)F)c(-c2ccc(Cl)c(Cl)c2)c1)C(F)(F)F [Example 15]"
assignedcategory = "high range"

[[record]]
molecule = "NC(=O)CO/N=C1\\CCCC[C@@H]1NC(=O)c1cnc(OCC2CC2)c(-c2ccc(Cl)cc2)c1 [Example 5]"
assignedcategory = "mid range"

[[record]]
molecule = "CO/N=C1\\CCCC[C@@H]1NC(=O)c1cnc(O[C@@H](C)C(F)(F)F)c(-c2ccc(Cl)cc2)n1 [Example 27]"
assignedcategory = "high range"

[[record]]
molecule = "CO/N=C(\\CNC(=O)c1cnc(OCC(F)(F)F)c(-c2ccc(Cl)cc2)c1)C1CC1 [Example 13]"
assignedcategory = "low range"

[[record]]
molecule = "COCO/N=C1\\CCCC[C@@H]1NC(=O)c1cnc(OCC2CC2)c(-c2ccc(Cl)cc2)c1 [Example 6]"
assignedcategory = "mid range"

[[record]]
molecule = "CO/N=C(\\CNC(=O)c1ncc(OCC2CC2)c(-c2ccc(Cl)cc2)n1)C1CC1 [Example 19]"
assignedcategory = "high range"

[[record]]
molecule = "CO/N=C1\\CCCC[C@H]1NC(=O)c1cnc(OCC(F)(F)F)c(-c2ccc(Cl)c(Cl)c2)c1 [Example 8]"
assignedcategory = "mid range"

[[record]]
molecule = "CO/N=C(/CNC(=O)c1ccc(OCC(F)(F)F)c(-c2ccc(Cl)cc2)n1)C(F)(F)F [Example 21]"
assignedcategory = "high range"

[[record]]
molecule = "CC(C)O/N=C1\\CCCC[C@@H]1NC(=O)c1cnc(OCC2CC2)c(-c2ccc(Cl)cc2)c1 [Example 3]"
assignedcategory = "low range"

[[record]]
molecule = "O=C(N[C@H]1CCCC/C1=N\\OCC(F)(F)F)c1cnc(OCC2CC2)c(-c2ccc(Cl)cc2)c1 [Example 4]"
assignedcategory = "low range"

[[record]]
molecule = "CO/N=C(/CNC(=O)c1cnc(O[C@@H](C)C(F)(F)F)c(-c2ccc(Cl)cc2)n1)C1CC1 [Example 26]"
assignedcategory = "low range"

[[record]]
molecule = "CO/N=C1\\CCCC[C@@H]1NC(=O)c1ncc(O[C@@H](C)C(F)(F)F)c(-c2ccc(Cl)cc2)n1 [Example 28]"
assignedcategory = "mid range"

